# System: HSSY-II complex spheroid growth, percent test/control
# assay.info: Anticancer human tumor HSSY-II cell line growth inhibition [Asc];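 further: spheroids exposed to drug for 7 days before reading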
# assay.setup: second compound 0.03 µM; first compound 0.00316 µM; active compounds read low
I'd appreciate it if you could supply viability, T/C values for the items below.
Output spec: scalar in %, unitless text.

Exercise: Item CNC(C)C(=O)NC1CN(S(=O)(=O)c2cccc(S(=O)(=O)N3CCC4CCC(C(=O)NC(c5ccccc5)c5ccccc5)N4C(=O)C(NC(=O)C(C)NC)C3)c2)CCC2CCC(C(=O)NC(c3ccccc3)c3ccccc3)N2C1=O (stereo not drawn) + CCN1C(C(=O)NC23CCC(C(=O)O)(CC2)CC3)C(c2cccc(Cl)c2F)C2(C(=O)Nc3cc(Cl)ccc32)C12CCCCC2 : provide viability, T/C
Solution: 76.3

Exercise: Entry O=C(c1ccc(F)c(F)c1Nc1ccc(I)cc1F)N1CC(O)([C@@H]2CCCCN2)C1 + CCN1C(C(=O)NC23CCC(C(=O)O)(CC2)CC3)C(c2cccc(Cl)c2F)C2(C(=O)Nc3cc(Cl)ccc32)C12CCCCC2 needs its viability, T/C filled in; supply it.
Solution: 101

Exercise: Indicate its recorded viability, T/C; the molecule in question is CCN1CCN(Cc2ccc(Nc3ncc(F)c(-c4cc(F)c5nc(C)n(C(C)C)c5c4)n3)nc2)CC1 + CCN1C(C(=O)NC23CCC(C(=O)O)(CC2)CC3)C(c2cccc(Cl)c2F)C2(C(=O)Nc3cc(Cl)ccc32)C12CCCCC2
Solution: 90.3

* * *

Can you tell me viability, T/C for the items I'm about to list?
# Test system: HSSY-II complex spheroid growth, percent test/control
# assay.info: Anticancer human tumor HSSY-II cell line growth inhibition [Asc];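 further: spheroids exposed to drug for 7 days before reading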
# assay.setup: second compound 0.3 µM; first compound 0.316 µM; active compounds read low
Provide only the numeric value, understood in %.

Exercise: # return viability, T/C of C=C(F)C(=O)N1CCN(c2nc(OCC3CCCN3C)nc3c2CCN(c2cccc4cccc(Cl)c24)C3)CC1CC#N (centres undefined) + CCN1C(C(=O)NC23CCC(C(=O)O)(CC2)CC3)C(c2cccc(Cl)c2F)C2(C(=O)Nc3cc(Cl)ccc32)C12CCCCC2 (system: HSSY-II complex spheroid growth, percent test/control)
Solution: 19.9

Exercise: Quote HSSY-II complex spheroid growth, percent test/control viability, T/C for entry O=C(c1cc(Cc2n[nH]c(=O)c3ccccc23)ccc1F)N1CCN(C(=O)C2CC2)CC1 + CCN1C(C(=O)NC23CCC(C(=O)O)(CC2)CC3)C(c2cccc(Cl)c2F)C2(C(=O)Nc3cc(Cl)ccc32)C12CCCCC2 .
Solution: 18.3

Exercise: Answer with viability, T/C of C#Cc1c(F)ccc2cc(O)cc(-c3ncc4c(N5CC6CCC(C5)N6)nc(OCC56CCCN5CC(F)C6)nc4c3F)c12 (centres undefined) + CCN1C(C(=O)NC23CCC(C(=O)O)(CC2)CC3)C(c2cccc(Cl)c2F)C2(C(=O)Nc3cc(Cl)ccc32)C12CCCCC2 measured for HSSY-II complex spheroid growth, percent test/control.
Solution: 26

Exercise: Report value: viability, T/C, system: HSSY-II complex spheroid growth, percent test/control, compound: CCN1CCN(Cc2ccc(Nc3ncc(F)c(-c4cc(F)c5nc(C)n(C(C)C)c5c4)n3)nc2)CC1 + CCN1C(C(=O)NC23CCC(C(=O)O)(CC2)CC3)C(c2cccc(Cl)c2F)C2(C(=O)Nc3cc(Cl)ccc32)C12CCCCC2
Solution: 13.8
